Kindly supply the reported melting point values for the records listed here.

These solved cases illustrate the format of a correct answer.
Endpoint output: melting point of `COc1cc(C)c(C=CC(C)=CC=CC(C)=CC(=O)n2ccnc2)c(C)c1C` . Value? 184 to 185 °C

Endpoint output: melting point of `O=C(COC1CCCCCCCCCCC1)C1=C(O)CSC1=O` . Value? 93 to 95 °C

Endpoint output: melting point of `CC1(C)CC(=O)CC(C)(C)N1CCCCCCN1C(C)(C)CC(=O)CC1(C)C` . Value? 151 to 152 °C

Endpoint output: melting point of COC(=O)C(N)CSCc1ccccc1 (stereo not drawn) . Value? 84 to 87 °C

Endpoint output: melting point of `Nc1c(F)c(F)cc2c1c(=O)c(C(=O)O)cn2C1COC1` . Value? > 300 °C

Endpoint output: melting point of `Cn1ccnc1Sc1ccc(Nc2c(C#N)cnc3cc(-c4ccc(C(=O)N5CCOCC5)cc4)ccc23)cc1Cl` . Value? 98 to 101 °C

Endpoint output: melting point of `COC(=O)CCCCC1C(C(=O)OC)=C(C)NC(C)=C1C(=O)OC` . Value? 80 to 81 °C

Endpoint output: melting point of `COc1ccc2cc([C@H](C)C(=O)OC[C@@H]3NC(=O)[C@@H](C(C)(C)S)NC3=O)ccc2c1` . Value? > 180 °C

Endpoint output: melting point of `CC(=O)SCC(=Cc1cc(F)cc(F)c1)C(=O)NCCC(=O)OCc1ccccc1` . Value? 82 °C

Endpoint output: melting point of O=C(O)C(Sc1nc2ccccc2s1)c1ccccc1 (stereo not drawn) . Value? 152 to 154 °C

For the 2 molecules below, give their melting point values.
1. O=C(Nc1ccccn1)C1=C(O)c2sc3ccccc3c2S(=O)(=O)N1
2. COc1nc2cccnc2n(-c2ccc(Cl)cc2)c1=O

1. 240 to 242 °C
2. 242 to 243 °C

Endpoint output: melting point of `C[C@@H](CO)Oc1ccc2cc(Br)ccc2c1` . Value? 71 to 72 °C
